molecular target: MOP (Homo sapiens, UniProt P35372); construct: expressed in transfected cells; host or cells: CHO cells (membranes); experiment: [35S]GTPγS binding, MOP; assay type: biochemical; settings: 1 h; read-out: % stim MOP
Sequence (P35372 whole entry): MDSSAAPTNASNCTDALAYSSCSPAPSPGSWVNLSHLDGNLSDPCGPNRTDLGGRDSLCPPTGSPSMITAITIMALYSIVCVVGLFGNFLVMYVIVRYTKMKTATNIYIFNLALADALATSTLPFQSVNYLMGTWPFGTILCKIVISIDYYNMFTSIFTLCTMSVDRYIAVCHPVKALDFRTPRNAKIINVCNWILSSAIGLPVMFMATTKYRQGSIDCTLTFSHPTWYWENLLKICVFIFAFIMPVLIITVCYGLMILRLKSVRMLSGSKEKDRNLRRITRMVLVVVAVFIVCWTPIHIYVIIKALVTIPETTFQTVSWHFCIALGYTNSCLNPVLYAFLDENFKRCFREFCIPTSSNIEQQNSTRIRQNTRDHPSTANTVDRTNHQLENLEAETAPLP
quantity kind: Emax (%)
Give the quantity in %, number only.

Observe how each entry below is paired with its result.
COc1ccccc1CC(=O)O[C@@]12CCC(=O)[C@@H]3Oc4c(O)ccc5c4[C@@]31CCN(CC1CC1)C2C5 [Compound 7]	37
COc1cccc(CC(=O)O[C@@]23CCC(=O)[C@@H]4Oc5c(O)ccc6c5[C@@]42CCN(CC2CC2)C3C6)c1 [Compound 5]	11
O=C(Cc1ccccc1F)O[C@@]12CCC(=O)[C@@H]3Oc4c(O)ccc5c4[C@@]31CCN(CC1CC1)C2C5 [Compound 8]	28
Cc1ccc(CC(=O)O[C@@]23CCC(=O)[C@@H]4Oc5c(O)ccc6c5[C@@]42CCN(CC2CC2)C3C6)cc1 [Compound 2]	35
O=C(Cc1ccc(Cl)cc1)O[C@@]12CCC(=O)[C@@H]3Oc4c(O)ccc5c4[C@@]31CCN(CC1CC1)C2C5 [Compound 9]	8.2

Query: Using the record for O=C(Cc1ccccc1Cl)O[C@@]12CCC(=O)[C@@H]3Oc4c(O)ccc5c4[C@@]31CCN(CC1CC1)C2C5 [Compound 10] , state its measured Emax.
Response: 39

Query: Could you please provide reported Emax for O=C(Cc1ccc2c(c1)OCO2)O[C@@]12CCC(=O)[C@@H]3Oc4c(O)ccc5c4[C@@]31CCN(CC1CC1)C2C5 [Compound 6] ? Thanks!
Response: 12

Query: Using known records, supply Emax for O=C(CCc1ccc(Cl)cc1)O[C@@]12CCC(=O)[C@@H]3Oc4c(O)ccc5c4[C@@]31CCN(CC1CC1)C2C5 [Compound 16]
Response: 21

Query: Retrieve Emax measured for O=C(CCc1cccc(Cl)c1)O[C@@]12CCC(=O)[C@@H]3Oc4c(O)ccc5c4[C@@]31CCN(CC1CC1)C2C5 [Compound 17] and print it.
Response: 26

====

target: KOP (Homo sapiens, UniProt P41145); construct: expressed in transfected cells; host or cells: CHO cells (membranes); experiment: biochemical; assay type: binding; conditions: [3H]U69593, membranes of CHO cells with human receptor
Sequence (P41145 whole entry): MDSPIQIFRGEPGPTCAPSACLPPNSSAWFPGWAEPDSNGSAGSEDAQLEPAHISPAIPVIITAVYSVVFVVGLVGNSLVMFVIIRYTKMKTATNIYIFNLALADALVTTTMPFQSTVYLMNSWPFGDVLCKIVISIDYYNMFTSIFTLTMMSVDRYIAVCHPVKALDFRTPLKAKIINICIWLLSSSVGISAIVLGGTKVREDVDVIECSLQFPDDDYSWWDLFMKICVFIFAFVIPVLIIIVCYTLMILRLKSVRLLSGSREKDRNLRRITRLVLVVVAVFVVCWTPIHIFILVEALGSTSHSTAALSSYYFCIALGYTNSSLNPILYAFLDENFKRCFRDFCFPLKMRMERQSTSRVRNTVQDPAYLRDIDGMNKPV
quantity kind: Ki (nM)
Numbers only here, please. The scale is nM.

Answered cases to consult:
O=C(CCc1ccccc1)O[C@@]12CCC(=O)[C@@H]3Oc4c(O)ccc5c4[C@@]31CCN(CC1CC1)C2C5	10.5
Cc1ccc(CCC(=O)O[C@@]23CCC(=O)[C@@H]4Oc5c(O)ccc6c5[C@@]42CCN(CC2CC2)C3C6)cc1	1.06
O=C(Cc1ccccc1)O[C@@]12CCC(=O)[C@@H]3Oc4c(O)ccc5c4[C@@]31CCN(CC1CC1)C2C5	1.14

Query: Report value only: Ki, KOP (Homo sapiens, UniProt P41145), O=C(CCc1ccc(Cl)cc1)O[C@@]12CCC(=O)[C@@H]3Oc4c(O)ccc5c4[C@@]31CCN(CC1CC1)C2C5
Response: 1.34

====

target: MOP (Homo sapiens, UniProt P35372); construct: expressed in transfected cells; host or cells: CHO cells (membranes); assay: biochemical; format: binding; conditions: [3H]DAMGO, membranes of CHO cells with human receptor
Lab note: anything with Ki below 0.9 nM is marked 1; values at 0.9 nM or higher are marked -1.

Cc1ccccc1CC(=O)O[C@@]12CCC(=O)[C@@H]3Oc4c(O)ccc5c4[C@@]31CCN(CC1CC1)C2C5	-1
COc1ccccc1CCC(=O)O[C@@]12CCC(=O)[C@@H]3Oc4c(O)ccc5c4[C@@]31CCN(CC1CC1)C2C5	-1
O=C(Cc1ccccc1F)O[C@@]12CCC(=O)[C@@H]3Oc4c(O)ccc5c4[C@@]31CCN(CC1CC1)C2C5	-1

Query: Problem: For the compound O=C(CCc1ccccc1)O[C@@]12CCC(=O)[C@@H]3Oc4c(O)ccc5c4[C@@]31CCN(CC1CC1)C2C5 , is Ki under 0.9 nM?
Response: 1

Query: Find out if reported Ki for O=C(CCc1ccc(Cl)cc1)O[C@@]12CCC(=O)[C@@H]3Oc4c(O)ccc5c4[C@@]31CCN(CC1CC1)C2C5 is less than 0.9 nM
Response: 1

# credit: patent US9969746B2
